Quick reference for pIC50 among some compounds
biological target: human VR1 (Homo sapiens, UniProt Q8NER1); construct: expressed in transfected cells; assay: capsaicin-induced Ca2+ influx in the human VR1-transfected CHO cell line (Assay 1); format: cell-based; conditions: Table 1; 10 nM capsaicin, human VR1-CHOluc9aeq cells; read-out: activity class
Sequence (Q8NER1 whole entry): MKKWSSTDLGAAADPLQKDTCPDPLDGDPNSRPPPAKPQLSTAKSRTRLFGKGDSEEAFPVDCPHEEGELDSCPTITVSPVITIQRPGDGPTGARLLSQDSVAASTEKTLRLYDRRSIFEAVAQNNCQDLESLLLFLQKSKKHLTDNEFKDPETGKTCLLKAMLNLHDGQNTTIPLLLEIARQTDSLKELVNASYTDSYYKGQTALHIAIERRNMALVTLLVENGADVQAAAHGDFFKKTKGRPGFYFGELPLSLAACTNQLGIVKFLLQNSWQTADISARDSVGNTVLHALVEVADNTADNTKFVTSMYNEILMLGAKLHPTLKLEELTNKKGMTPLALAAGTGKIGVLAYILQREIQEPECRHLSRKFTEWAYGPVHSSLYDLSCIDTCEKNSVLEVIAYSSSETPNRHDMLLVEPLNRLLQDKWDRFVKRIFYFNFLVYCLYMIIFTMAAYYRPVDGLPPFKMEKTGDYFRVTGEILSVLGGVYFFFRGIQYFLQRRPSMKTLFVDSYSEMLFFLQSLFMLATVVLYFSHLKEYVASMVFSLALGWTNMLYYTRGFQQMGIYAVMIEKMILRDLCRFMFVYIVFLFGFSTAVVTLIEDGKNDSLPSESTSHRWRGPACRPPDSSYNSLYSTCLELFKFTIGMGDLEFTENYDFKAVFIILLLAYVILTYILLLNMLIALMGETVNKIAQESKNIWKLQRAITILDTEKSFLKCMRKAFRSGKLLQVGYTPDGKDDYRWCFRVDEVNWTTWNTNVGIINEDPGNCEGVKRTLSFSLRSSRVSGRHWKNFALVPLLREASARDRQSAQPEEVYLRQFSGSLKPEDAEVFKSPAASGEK
pIC50: −log10 of the molar value.

Illustrative cases are given below, each with its answer.
compound	pIC50
Cc1ccc(NC(=O)Nc2ccc(Cl)c(C(F)(F)F)c2)c2c1CCC(O)C2 (stereo not drawn)	> 7.00
O=C(Nc1ccccc1C(F)(F)F)Nc1cccc2c1CC(O)CC2 (stereo not drawn)	6.00 to 6.30
CN(C(=O)Nc1ccc(Cl)c(C(F)(F)F)c1)c1cccc2c1CC(O)CC2 (stereo not drawn)	6.30 to 7.00
O=C(Nc1ccc(Cl)c(Cl)c1)Nc1cccc2c1CC(O)CC2 (stereo not drawn)	> 7.00
O=C(Nc1ccc(Cl)c(C(F)(F)F)c1)Nc1ccc(Br)c2c1CC(O)CC2 (stereo not drawn)	> 7.00
CCOC(=O)c1ccc(NC(=O)Nc2cccc3c2CC(O)CC3)cc1 (stereo not drawn)	> 7.00
Cc1cccc(CNC(=O)Nc2cccc3c2CC(O)CC3)c1 (stereo not drawn)	6.30 to 7.00
Cc1cccc(NC(=O)Nc2cccc3c2CC(O)CC3)c1 (stereo not drawn)	6.30 to 7.00

Entry CN(C)c1ccc(NC(=O)Nc2cccc3c2CC(O)CC3)cc1 (stereo not drawn) : reported pIC50 = ?
< 6.00

Entry O=C(Nc1cccc2c1CC(O)CC2)Nc1cccc2ccccc12 (stereo not drawn) : reported pIC50 = ?
> 7.00

The measured values listed here are drawn from patent US7612113B2.
